The entries below come with measured Tm values attached.
METHOD SUMMARY: Differential scanning fluorimetry (DSF) melting temperature of Sgf29 and variants
Type: physicochemical, Homo sapiens
RECORDED CONDITIONS: SYPRO-Orange fluorescence, 25 mM TRIS pH 7.5, 50 mM NaCl, 1 mM DTT, 2.5 μl of 25 μM protein in 25 μl, 20–95°C, 1°C min^-1, ± SD, measured in triplicate
State just the number; it will be interpreted in °C.

| MOLECULE | QUANTITY NAME | ENDPOINT VALUE |
| --- | --- | --- |
| D266F: Sgf29 variant, D266 substituted by phenylalanine (protein, left off: 6xHis, end not stated, cleaved, Sgf29 variant, D266 substituted by phenylalanine) RRGVLMTLLQQSAMTLPLWIGKPGDKPPPLCGAIPASGDYVARPGDKVAARVKAVDGDEQWILAEVVSYSHATNKYEVDDIDEEGKERHTLSRRRVIPLPQWKANPETDPEALFQKEQLVLALYPQTTCFYRALIHAPPQRPQDDYSVLFEFTSYADGYSPPLNVAQRYVVACKEPKKK | Tm | 53.9 |
| Y238F: Sgf29 variant, Y238 substituted by phenylalanine (protein, left off: 6xHis, end not stated, cleaved, Sgf29 variant, Y238 substituted by phenylalanine) RRGVLMTLLQQSAMTLPLWIGKPGDKPPPLCGAIPASGDYVARPGDKVAARVKAVDGDEQWILAEVVSYSHATNKYEVDDIDEEGKERHTLSRRRVIPLPQWKANPETDPEALFQKEQLVLALFPQTTCFYRALIHAPPQRPQDDYSVLFEDTSYADGYSPPLNVAQRYVVACKEPKKK | Tm | 56.5 |

Task: Answer with the recorded Tm for the molecule listed here: D266N: Sgf29 variant, D266 substituted by asparagine (protein, left off: 6xHis, end not stated, cleaved, Sgf29 variant, D266 substituted by asparagine) RRGVLMTLLQQSAMTLPLWIGKPGDKPPPLCGAIPASGDYVARPGDKVAARVKAVDGDEQWILAEVVSYSHATNKYEVDDIDEEGKERHTLSRRRVIPLPQWKANPETDPEALFQKEQLVLALYPQTTCFYRALIHAPPQRPQDDYSVLFENTSYADGYSPPLNVAQRYVVACKEPKKK
Result: 56.4

The origin of these recorded values is paper PMC4589357.
